Tested on: MOLT-4 leukemia
Test: NCI tumour cell line growth inhibition, 48 h
Reported TGI by item:

- molecule: "CC1=C(C(=O)OCc2ccccc2)C(c2ccc3c(c2)OCO3)n2c(nc3ccccc32)N1 (centres undefined)"
  censor.symbol: ">"
  TGI / µM: 100
- molecule: "NC(=O)OCC(COc1ccc(Cl)cc1)OC(=O)c1ccccc1Cl (centres undefined)"
  censor.symbol: "="
  TGI / µM: 56.6
- molecule: "COc1cc2c(/C=C3/C(=O)Nc4ccc(Cl)cc43)c(Cl)n(Cc3ccccc3)c2cc1C"
  censor.symbol: "="
  TGI / µM: 5.02
- molecule: "CCOC(=O)c1c2c(n(CC(C)C)c1C)-c1nc[nH]c1C(=O)C2=O"
  censor.symbol: "="
  TGI / µM: 9.45
- molecule: "CCOC(=O)C(c1c[nH]c2ccccc12)(c1c[nH]c2ccccc12)c1c[nH]c2ccccc12"
  censor.symbol: "="
  TGI / µM: 40.8
- molecule: "CCc1c(C)[nH]c(/C=C2\\N=C(c3ccc[nH]3)C=C2OC)c1C"
  censor.symbol: "="
  TGI / µM: 4.18
- molecule: "CC12CCC(=O)C(O1)C1C(=O)c3cc4ccccc4cc3C(=O)C12 (centres undefined)"
  censor.symbol: "="
  TGI / µM: 74.1
- molecule: "O=C1NC(N2CCOCC2)=N/C1=C\\c1cccs1"
  censor.symbol: ">"
  TGI / µM: 100
- molecule: "COc1cc(Cn2cc3c(c2)-c2oncc2CC3)cc(OC)c1OC"
  censor.symbol: "="
  TGI / µM: 13.1
